Test system: Nuclear hormone receptor DAF-12 (Strongyloides stercoralis)
test description: S. stercoralis DAF-12 nuclear receptor activators, primary screen, cell-based, luminescence, HEK293, GRIP1 co-expression, lit1-tk-luc (AID 652126)
measurement conditions: HEK293 ssDAF-12/GRIP1 lit1-tk-luc reporter, at 6.8 µM, % of 3 µM dafachronic acid response
Among all 370,000 compounds or so, about 3,700 (1%) were called active.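 Rule for the calls: active = activation above the mean over all tested compounds plus 3 SD (cut at about 0.9% in these data); inactive = the rest.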 The full list was thinned out, with actives kept by preference.
Give your call using only these classes: t (active), f (inactive)

Past entries and their recorded results:
compound: COCCNc1nc(N)c([N+](=O)[O-])c(NCCO)n1
class label: f
--
compound: COc1ccc(C(=O)NC2=NCCS2)c(OC)c1
class label: t
--
compound: Cc1cccc2c1N(CCOc1ccccc1)C(=O)C2=O
class label: f

[in] Recorded test call requested for `COC(=O)[C@]12C[C@H](CC(=O)NCc3ccccc3)C(=O)N(Cc3ccccc3)C1=C[C@H](COCc1ccccc1)O[C@@H]2C`
[out] f

[in] Recorded test call requested for `Cc1ccc(SCCC(=O)NC(C(C)C)C(C)C)cc1`
[out] f

[in] Recorded test call requested for COc1ccc(C(C(=O)NCc2ccccc2)n2c(=O)c(-c3ccccc3)nc3ccccc32)cc1 (stereo unspecified)
[out] f

[in] Recorded test call requested for `CCOC(=O)[C@]12CCCC3=C1N(CCC3)C(=O)[C@@H](CC(=O)NCC13CC4CC(CC(C4)C1)C3)C2`
[out] f

[in] Recorded test call requested for `COc1ccc(N(CC(=O)N/N=C/c2cccs2)S(=O)(=O)c2ccc(OC)c(OC)c2)cc1`
[out] f

[in] Recorded test call requested for `CNc1nc(Nc2ccc(C)c(Cl)c2)nc(N)c1[N+](=O)[O-]`
[out] t

[in] Recorded test call requested for `Cc1ccc(C2=Nc3c(ccc4ccccc34)C(c3ccncc3)=NN2)cc1`
[out] t

[in] Recorded test call requested for COc1ccc2c(C(C)c3ccc(N)cc3)cn(C)c2c1 (stereo unspecified)
[out] f

[in] Recorded test call requested for `C=CCN1C(=O)[C@H](CC(=O)NCCCN2CCCC2=O)[C@@]2(C(=O)OCC)CCCC=C12`
[out] f

[in] Recorded test call requested for `Nc1nc(Nc2ccccc2F)nc(NC2CCCCC2)c1[N+](=O)[O-]`
[out] f

[in] Recorded test call requested for CC(C)(C)N(CC#CCC(O)(c1ccccc1)C1CCCC1)CCO (stereo unspecified)
[out] f

[in] Recorded test call requested for `O=C(NC1=NCCS1)c1ccc(Cl)s1`
[out] f

[in] Recorded test call requested for `Cc1c(NC(=O)C(=O)N/N=C/c2cccs2)c(=O)n(-c2ccccc2)n1C`
[out] f

[in] Recorded test call requested for COc1ccc(NC(=O)C(c2ccncc2)n2c(=O)c(-c3cc4ccccc4[nH]3)nc3ccccc32)cc1 (stereo unspecified)
[out] t
